Origin of values: patent USRE31731E

- Test system: Monocots
- EXPERIMENTAL_PROTOCOL: Herbicidal activity, preemergence, monocot weeds (Table II)
- Format: in vivo
- STATED_CONDITIONS: pre-emergence, 336 h, 10 lb./A., about 2 weeks, read-out: % control (percent of plants killed)
Known pest or weed control at 11208.5 g/ha of a selection of molecules
Write the number in % without appending the unit.

Please review the entries below; each comes with its answer.
>>> df
                                   compound  output_unit  reported_measurement
0  CCOc1cc(Oc2ccc(C(F)(F)F)cc2C#N)ccc1[N+](=O)[O-]            %                    61
1  CCCOc1cc(Oc2ccc(C(F)(F)F)cc2C#N)ccc1[N+](=O)[O-]            %                    81
2  CCCOc1cc(Oc2ccc(C(F)(F)F)cc2Cl)ccc1[N+](=O)[O-]            %                    97
3  CCCCOc1cc(Oc2ccc(C(F)(F)F)cc2Cl)ccc1[N+](=O)[O-]            %                    65

Here is the next item to consider.
The value of pest or weed control at 11208.5 g/ha measured for the molecule `Cc1cc(Oc2ccc(C(F)(F)F)cc2C#N)ccc1[N+](=O)[O-]` turned out to be 99

====

- Test system: Monocots
- EXPERIMENTAL_PROTOCOL: Herbicidal activity, postemergence, monocot weeds (Table II)
- Format: in vivo
- STATED_CONDITIONS: post-emergence, 336 h, 2 lb./A., about 2 weeks, read-out: % control (percent of plants killed)
Consider the cut-off 80%. If the recorded pest or weed control at 2241.7 g/ha is strictly smaller, the label is condition met; if not, the label is condition not met.

>>> df
                                   compound              class
0  CCOC(=O)COc1cc(Oc2ccc(C(F)(F)F)cc2Cl)ccc1[N+](=O)[O-]  condition not met

A record lists CC(Oc1cc(Oc2ccc(C(F)(F)F)cc2Cl)ccc1[N+](=O)[O-])C(N)=O (stereo not shown) . Is its pest or weed control at 2241.7 g/ha below 80%?
condition not met

For this compound, is pest or weed control at 2241.7 g/ha lower than 80%? CC(=O)C(C)Oc1cc(Oc2ccc(C(F)(F)F)cc2Cl)ccc1[N+](=O)[O-] (stereo not shown)
condition not met

Lab note: confirm whether the reported pest or weed control at 2241.7 g/ha for this compound is below 80%, equality not counting. compound: O=[N+]([O-])c1ccc(Oc2ccc(C(F)(F)F)cc2Cl)cc1OCC1CO1 (stereo not shown)
condition met

Input `O=[N+]([O-])c1ccc(Oc2ccc(C(F)(F)F)cc2Cl)cc1NCCO` ; condition: pest or weed control at 2241.7 g/ha strictly below 80%. Does it hold?
condition met

Regarding `CCNc1cc(Oc2ccc(C(F)(F)F)cc2Cl)ccc1[N+](=O)[O-]` , kindly confirm whether its pest or weed control at 2241.7 g/ha is beneath 80%.
condition not met

Does CC(Oc1cc(Oc2ccc(C(F)(F)F)cc2Cl)ccc1[N+](=O)[O-])C(=O)O (stereo not shown) have pest or weed control at 2241.7 g/ha strictly under 80%?
condition not met

Lab note: confirm whether the reported pest or weed control at 2241.7 g/ha for this compound is below 80%, equality not counting. compound: `CCCOc1cc(Oc2ccc(C(F)(F)F)cc2C#N)ccc1[N+](=O)[O-]`
condition met

Is pest or weed control at 2241.7 g/ha strictly under 80% for the entry `O=[N+]([O-])c1ccc(Oc2ccc(C(F)(F)F)cc2Cl)cc1OCC(F)(F)F` ?
condition not met

Dear colleague, could you confirm whether pest or weed control at 2241.7 g/ha of `CCN(C(=O)NC)c1cc(Oc2ccc(C(F)(F)F)cc2Cl)ccc1[N+](=O)[O-]` falls below 80%? Thanks.
condition met

In the record for C#CC(C)Oc1cc(Oc2ccc(C(F)(F)F)cc2Cl)ccc1[N+](=O)[O-] (stereo not shown) , is pest or weed control at 2241.7 g/ha less than 80%?
condition not met

Take the compound `CNC(=O)Oc1cc(Oc2ccc(C(F)(F)F)cc2Cl)ccc1[N+](=O)[O-]` and say whether its pest or weed control at 2241.7 g/ha is less than 80%.
condition met

State whether 80% exceeds pest or weed control at 2241.7 g/ha recorded for `O=[N+]([O-])c1ccc(Oc2ccc(C(F)(F)F)cc2Cl)cc1N1CCOCC1` .
condition met

In plain terms, does `CNC(=O)Nc1cc(Oc2ccc(C(F)(F)F)cc2Cl)ccc1[N+](=O)[O-]` come in under 80% for pest or weed control at 2241.7 g/ha?
condition met
